# study_system: Full-length wild type HIV-1 integrase (SF1) (Human immunodeficiency virus type 1 group M subtype B)
# Construct: made in house; host or cells: E. coli BL21 (DE3)
# assay_comment: Integrase strand-transfer scintillation proximity assay
# Type: biochemical
# assay_conditions: strand-transfer SPA, 246 nM integrase, 50 nM host DNA, 37° C., 50 min; read-out: IC50
pIC50: −log10 of the molar value.
value_kind: pIC50

{"columns": ["structure_string", "value_kind", "measured_number"],
 "data": [
  ["O=C1c2ncc3c(ccn3Cc3ccccn3)c2CCN1O", "pIC50", 7.05],
  ["Cc1cc2c(ncc3c2c(CN2CCN(C)CC2)cn3Cc2ccc(F)cc2)c(=O)n1O", "pIC50", 7.85],
  ["N#Cc1ccc(Cn2ccc3c4c(ncc32)C(=O)N(O)CC4)cc1", "pIC50", 6.97],
  ["CC(C)CN(C)Cc1cn(Cc2ccc(F)cc2)c2cnc3c(c12)CCN(O)C3=O", "pIC50", 7.36],
  ["CN(CCc1cn(Cc2ccc(F)cc2)c2cnc3c(c12)CCN(O)C3=O)CC1CC1", "pIC50", 7.72]
]}

====

# Tested on: HIV-1 RF virus in CEM-SS cells
# assay_comment: HIV-1 cell protection assay (XTT dye reduction)
# Assay type: cell-based
# assay_conditions: Human immunodeficiency virus 1, 144 h; RF strain of HIV-1, CEM-SS cells, XTT read-out after six days; read-out: EC50
value_kind: log10(EC50) (log10 of the value in nM)

{"columns": ["molecule", "study_system", "log10(EC50)"],
 "data": [
  ["COCCN(C)CCc1cn(Cc2ccc(F)cc2)c2cnc3c(c12)CCN(O)C3=O", "HIV-1 RF virus in CEM-SS cells", 1.11],
  ["CCN(C)Cc1cn(Cc2ccc(F)cc2)c2cnc3c(c12)CCN(O)C3=O", "HIV-1 RF virus in CEM-SS cells", 0.90],
  ["C[C@@H]1CN(Cc2cn(Cc3ccc(F)cc3)c3cnc4c(c23)CCN(O)C4=O)C[C@H](C)O1", "HIV-1 RF virus in CEM-SS cells", -0.35],
  ["CN(C1CCCC1)S(=O)(=O)c1cn(Cc2ccc(F)cc2)c2cnc3c(c12)CCN(O)C3=O", "HIV-1 RF virus in CEM-SS cells", 2.08],
  ["O=c1c2ncc3c(c(CO)cn3Cc3ccc(F)cc3)c2ccn1O", "HIV-1 RF virus in CEM-SS cells", 0.48],
  ["CN(Cc1cn(Cc2ccc(F)cc2)c2cnc3c(c12)CCN(O)C3=O)C1CCCOC1 (centres unmarked)", "HIV-1 RF virus in CEM-SS cells", 0.26],
  ["CN(CCCc1cn(Cc2ccc(F)cc2)c2cnc3c(c12)CCN(O)C3=O)CC1CCOCC1", "HIV-1 RF virus in CEM-SS cells", 1.20],
  ["COC1CCN(Cc2cn(Cc3ccc(F)cc3)c3cnc4c(c23)CCN(O)C4=O)CC1", "HIV-1 RF virus in CEM-SS cells", -0.15],
  ["COCCOCc1cn(Cc2ccc(F)cc2)c2cnc3c(c12)CCN(O)C3=O", "HIV-1 RF virus in CEM-SS cells", 0.18],
  ["O=c1c2ncc3c(c(-c4ccccn4)cn3Cc3ccc(F)cc3)c2ccn1O", "HIV-1 RF virus in CEM-SS cells", 0.30],
  ["C[C@H](O)CNCc1cn(Cc2ccc(F)cc2)c2cnc3c(=O)n(O)ccc3c12", "HIV-1 RF virus in CEM-SS cells", 1.78]
]}
